Category | rule: reported log10 Koa within range, see bin 1 = under 3, bin 2 = from 3 up to 8, bin 3 = 8 and over

Q. Lab note: sort "Clc1cc2c(Cl)cc(Cl)c(Cl)c2c(Cl)c1Cl" into the matching log10 Koa band.
A. bin 3

Q. # bin label for "Clc1cc2ccc(Cl)c(Cl)c2cc1Cl"
A. bin 3

Q. Which class does "CCCC(=O)OCC" fall in?
A. bin 2

Q. // return the class label for "CCBr"
A. bin 1

Q. Please report the category associated with "Clc1cc(Cl)c(-c2cc(Cl)c(Cl)cc2Cl)cc1Cl" , nothing else.
A. bin 3

Q. # bin label for "Clc1ccc(Cl)c(Cl)c1"
A. bin 2

Q. Band assignment needed for "Clc1cccc2c(Cl)cccc12" please.
A. bin 2

Q. Record "C=CCCC" — which class?
A. bin 1

Q. Which class holds Cl[C@H]1[C@H](Cl)[C@@H](Cl)[C@@H](Cl)[C@H](Cl)[C@H]1Cl (racemic) ?
A. bin 3

Q. Band for "c1cc2c3c(cccc3c1)CC2" ?
A. bin 2

Q. Form: Item = "Clc1ccc(-c2ccc(Cl)c(Cl)c2)cc1Cl" ; Class = ?
A. bin 3

Q. Into which bin does this molecule go? "Clc1cc2ccccc2c(Cl)c1Cl"
A. bin 2

Q. Which bin should I file "Clc1ccc2ccc(Cl)cc2c1" under?
A. bin 2

Q. Consider "Clc1cc2cccc(Cl)c2c(Cl)c1Cl" . To which log10 Koa class does it belong?
A. bin 3

Q. Any idea which band "Brc1ccc(Oc2ccc(Br)cc2Br)c(Br)c1" is in?
A. bin 3

Q. Could you place "CCOC(C)=O" in its proper category? Many thanks.
A. bin 1

Q. Given "Brc1ccccc1Oc1ccccc1" , name the class its log10 Koa places it in.
A. bin 2

Q. Form field 'band' for "Clc1ccc(-c2ccc(Cl)cc2)cc1"
A. bin 2

Q. Textbook exercise: identify the category of the molecule given here, "CCCCCO" , according to its measured value.
A. bin 2

Q. Hi there! Could you help me figure out the category for "Clc1ccc(Cl)c(-c2c(Cl)ccc(Cl)c2Cl)c1" please?
A. bin 3

Q. Could you place "Clc1c(Cl)c(Cl)c2c(oc3c(Cl)c(Cl)c(Cl)c(Cl)c32)c1Cl" in its proper category? Many thanks.
A. bin 3

Q. Where would "Clc1c(Cl)c(Cl)c(Cl)c(Cl)c1Cl" land among the classes by reported log10 Koa?
A. bin 2

Q. Any idea which band "CCC" is in?
A. bin 1

Q. Which class does "CCCCN" fall in?
A. bin 2

Q. Where would "Brc1ccc(Oc2ccccc2)cc1Br" land among the classes by reported log10 Koa?
A. bin 3

Q. Category of "Clc1cc(Cl)c2cccc(Cl)c2c1" , please.
A. bin 2

Q. Which class does "CC" fall in?
A. bin 1

Q. The entry to classify is Clc1ccc(C(c2ccccc2Cl)C(Cl)(Cl)Cl)cc1 (stereo not given) ; which class holds it?
A. bin 3

Q. Input "c1ccccc1" ; output its category
A. bin 1

Q. Tag the class for ClC1=C(Cl)[C@]2(Cl)[C@H]3[C@H]([C@@H]4O[C@]4(Cl)[C@@H]3Cl)[C@@]1(Cl)C2(Cl)Cl (mixture of isomers)
A. bin 3

Q. Please report the category associated with "CNC" , nothing else.
A. bin 1

Q. Lab note: sort "C=CC(=C)C" into the matching log10 Koa band.
A. bin 1

Q. # classify by log10 Koa band: "CCCCCl"
A. bin 1

Q. Which log10 Koa band matches "CCOc1ccc(NC(C)=O)cc1" ?
A. bin 3

Q. Class? Entry: "CCC(C)=O"
A. bin 1

Q. Which bin should I file "CC(C)C#N" under?
A. bin 1

Q. Given "C=CCCCCCC" , name the class its log10 Koa places it in.
A. bin 2

Q. Which class is correct for the following molecule? "c1ccc2cc3ccccc3cc2c1"
A. bin 2

Q. Please classify: "CCOC=O"
A. bin 1

Q. Category of "Cl/C=C\Cl" :
A. bin 1

Q. Field: class (log10 Koa) — entry: "CC(C)=O"
A. bin 1

Q. Band of "CCCOC=O" ?
A. bin 1

Q. Lab note: which band did "Clc1ccc2oc3c(Cl)c(Cl)c(Cl)c(Cl)c3c2c1Cl" land in?
A. bin 3

Q. Class for "Brc1ccc(Oc2cccc(Br)c2)cc1" ?
A. bin 3

Q. Hi there! Could you help me figure out the category for "CC#N" please?
A. bin 1

Q. Hi there! Could you help me figure out the category for "CCCCCCCCCCCCCCCCO" please?
A. bin 3

Q. Into which bin does this molecule go? "Clc1ccc2ccc(Cl)c(Cl)c2c1Cl"
A. bin 3

Q. // return the class label for "CC(=O)OCC(C)C"
A. bin 2

Q. Classify this molecule: "N#Cc1ccccc1"
A. bin 2

Q. Bin? "Clc1ccc2c(Cl)ccc(Cl)c2c1"
A. bin 2

Q. Could you tell me which band "Clc1ccc(-c2cc(Cl)c(Cl)cc2Cl)cc1Cl" belongs to?
A. bin 3

Q. Record "Clc1ccc2c(Cl)ccc(Cl)c2c1Cl" — which class?
A. bin 3

Q. Just checking, what class would you give "Clc1ccc(-c2c(Cl)cccc2Cl)cc1" here?
A. bin 2

Q. Please indicate the class for "Brc1ccc(Br)cc1" based on its log10 Koa.
A. bin 2

Q. Band assignment needed for "CC(C)CCO" please.
A. bin 2

Q. Kindly identify the class of "C=CCCCCCCC" .
A. bin 2
